This collection of values is drawn from the nanobody polyreactivity screen of Harvey et al. (2022).

experiment summary: yeast display, Sf9 membrane polyspecificity reagent, FACS + sequencing; frameworks hold sequencing errors
measured property: polyreactivity (PSR sort gate)

1) QAQLKDSCGGLVQAGGSLRLSCPASGNNTSEYYMGCCRQAPGKGREFVDAIDYGGTTNYADNVKGRFTISRDNAKNTVYLQMNSLRPEDTALYYCAASWDTIGLFAYWGQGSQVTVSS	high polyreactivity
2) QVQLVESGGGLVQAGGSLRLSCAASGLIIRNYAMGWYRPAPGKERELVAAISYNGGSTYYADSVKGRFTISRDNAKNTVYLQMNSLKPEDTAVYYCAAYYGVGYRRYYYWGQGTQVTVSS	high polyreactivity

* * *

experiment summary: yeast display, Sf9 membrane polyspecificity reagent, FACS + sequencing; frameworks hold sequencing errors
measured property: polyreactivity (PSR sort gate)

Examples with answers:
1) QVHRVESGGGLVQAGASLRLSCAASGIIFDTYAMGCYRQAPGKEREIVAAITWNGGSTYYADSVKGRFTISRDNAKNPVYLQMNSLKPEDTPVYYCAKLPRTLTEYGYKGYYWGQGTQVTVSS	low polyreactivity
2) QVQLVDSGGGLVQAGGSLRLSCAASGSTFRYNAMGWYRQAPGKERELVAAIDKRGDSTYADSVKGRFTISRDNAKNTVYLQMNSLKPEDTAVYYCAADSDSKYNYGFLWDTYEYWGQGTQVTVSS	low polyreactivity
3) QVQLVESGGGLLQAGGSLRLSCAASGSIFTHNAMGWYRQAPGKERELVAAISSGGSTNYADSVKGRFTISRDNAKNTVYLHMNSLKPEDTAVYYCAATDQKLSLDYSSYEYWGQGTQVTVSS	low polyreactivity
4) QVQLVETGGGLVQAGGSLRLSCAASGFTFYYYAMGWYRQAPGKERELVAAINRSGGSTYYADSLKGRFTISRDNAKNTVYLQMNSLKPEDTAVYYCAAPYVGGSSHGYWGQGTQVTVSS	high polyreactivity
5) QVQLVESGGGLVQAGGSLRLSCAASGFNFIDYAMGWYRQAPGKERELVAAITSSGGRTYYADSVKGRFTISRDNAKITVYLQMTSLKPEDTAVYYCAARLPGYVRIYDYWGQGTQVTVSS	high polyreactivity
6) QVQLVESGGGLVQAGGSLRLSCAASGRIFRYYAMGWFRQAPGKERELVASISRRGGSTNYADSVKGRFTISRDNAKNTVDLQMNSLKPEDTAVYYCNAENSSPRGLYNYWGQGTQVTVSS	high polyreactivity
7) QVQLVESGGGLVQAGGSLRLSCAASGRIFGYNAMGWYRQAPGKERELVAAISSSGGSTYYADSVKGRFTISRDNAKNTVYLQMNSLKPEDTAVYYCAARRVTRTTVYRYQYYYWGQGTQVTVSS	high polyreactivity
8) QVQLVESGGGLVQAGGSLRLSCAASGIIFYRYAMGWYRQAPGKERELVAVISRSGCSTYYADSVKGRFTISRDNAKNTVYLQMNSLKPEDTAVYYSAAGRRYDGTRHDYWGQGTQVTVSS	high polyreactivity
9) QVQLVESGGGLVQAGGSLRLSCAASGYTSRSNAMGWYRQAPGKERELVAAIRGGGNTKYADSVKWRFTISRDNANNTVYLQMNSLKPEDTAVYYCAVVTGSFRTRYTYYYWGQGTQVTVSS	high polyreactivity
10) QVQLVESGGGLVKAGGSLRLRCAASGITFRYNAMGWYRQAPGKERELVAAITSSGGRTYYADSVKGRFTISRDNAKNTVYLQMNSLKPEDTAVYYCAARTRYRKEYDYWGQGTQVTVSS	high polyreactivity

Asked: Which polyreactivity (PSR sort gate) value is on record for QVQLVESGGGLVQAGGSLRLSCAASGRIFGANARGWYRQAPGKERELVATITYGGTSTYYADSVKGRFTISRDNAKNTVYLQMNSLKPEDTAVYYCAADGYSVFAAILGEYFDYDYWGQGTQVTVSS ?
Given back: low polyreactivity

Asked: Which polyreactivity (PSR sort gate) value is on record for QVQLVESGGGLVQAGGSLRLSCAASGSIYFTNAMGWYRQAPGKERELVAAIRWRGDRTYYADSVKGRFTISRDNGKNTVYLQMNSLIPEDTAVYYCAVAPSYKITEDSWGQGTQVTVSS ?
Given back: low polyreactivity

Asked: Which polyreactivity (PSR sort gate) value is on record for QVQLVESGGGLVQAGGSLRLSCAASGFTFKHYAMGWYRQATGKERELVATITRGGSTNYADSVKGRFTISRDNAKNTVYLQMNSLKPEDSAVYYCAAADYVRYPFTRGYIYQGYDYWGQGTQVTVSS ?
Given back: low polyreactivity

Asked: Which polyreactivity (PSR sort gate) value is on record for QVQLVESGGGLVQAGGSLRLSCAASGFIFEPNAMGWYRQAPGKERELVAAISWSGGSTYYADSVKGRFTISRDNAKNTVYLQMNSLKPEDTAVYYCNADITYAYYEYGSWGQGTQVTVSS ?
Given back: high polyreactivity

Asked: Which polyreactivity (PSR sort gate) value is on record for QVQLVESGGGLVQAGGSLRLICAASGITFYVYTMGWYRQAPGKERELVAAINGSGGSTNYADSVKGRFTISRDNAKNTVYLQMNSLKPEDTAVYYCAADWSLRLYDYWGQGTQVTVSS ?
Given back: low polyreactivity
